assayRemarks: chemical genetic growth profiling, strain panel (AID 1159580);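 further: tested at 20 µM; growth read once vehicle control cultures reached saturation at 30 °C; 1 = growth at the plate median or of vehicle wells; lower values mean less growth of the strain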
setupConditions: S. cerevisiae deletion strains, growth OD, locus YDR159W, strain sac3, hits give low values
Out of some 5,500 compounds screened, about 2,000 (36%) were called active. Another 18% or so got no clear call; they are omitted. Some of the results follow.
endpoint: normalized growth
Give bare numbers.

Completed entries (count: 3):
molecule	valueReported
CC(Oc1ccccc1)C(=O)N[C@@H]1C(=O)N2[C@@H]1SC(C)(C)[C@@H]2C(=O)O (stereo partly drawn)	1.02
CC(=O)O[C@@H]1C[C@@]2(C)C(CC[C@@H]2C(C)=O)C2CCC3=CC(=O)CC[C@]3(C)C21 (stereo partly drawn)	1.02
C[C@H]1CC2C([C@@H](O)C[C@@]3(C)C2CC[C@]3(O)C(=O)CO)[C@@]2(C)C=CC(=O)C=C12 (stereo partly drawn)	1.01

# map each molecule to its normalized growth
1. CC1=C(CC(=O)O)c2cc(F)ccc2/C1=C\c1ccc(S(C)=O)cc1 (stereo not drawn)
2. COc1cc2c(cc1OC)[C@@H]1C(=O)c3ccc(OC)c(CC=C(C)C)c3O[C@@H]1CO2
3. CCC(=O)O[C@H]1CCC2C3CCC4=CC(=O)CC[C@]4(C)C3CC[C@@]21C (stereo partly drawn)
4. COc1cc2c(cc1OC)[C@@H]1C(=O)c3ccc4c(c3O[C@@H]1CO2)C=CC(C)(C)O4
5. CCCCNc1cc(C(=O)O)cc(S(N)(=O)=O)c1Oc1ccccc1
6. COC1=C(OC)C(=O)C(C/C=C(\C)CC/C=C(\C)CC/C=C(\C)CC/C=C(/C)CC/C=C(\C)CC/C=C(\C)CC/C=C(\C)CC/C=C(\C)CC/C=C(\C)CCC=C(C)C)=C(C)C1=O

**Result**
1.02
1.02
0.796
0.898
0.943
0.963

# map each molecule to its normalized growth
1. C[C@]12CCC(=O)C=C1CCC1C2CC[C@@]2(C)C1CC[C@@H]2O (stereo partly drawn)
2. COc1ccc2c3c1O[C@H]1C[C@@H](O)C=C[C@@]31CCN(C)C2
3. CC1=C(C/C=C(\C)CCC[C@H](C)CCC[C@H](C)CCCC(C)C)C(=O)c2ccccc2C1=O
4. CN[C@@H](C)[C@@H](O)c1ccccc1
5. CCCCCCCCCCCCCCCC(=O)OC/C=C(C)/C=C/C=C(C)/C=C/C1=C(C)CCCC1(C)C
6. CS(=O)(=O)c1ccc(C2=C(c3ccccc3)C(=O)OC2)cc1
7. COc1ccc2c(c1)O[C@@H]1COc3cc(OC)c(OC)cc3[C@@H]1C2=O
8. CC1=C(/C=C/C(C)=C/C=C/C(C)=C/C=C/C=C(C)/C=C/C=C(C)/C=C/C2=C(C)C(=O)C(O)CC2(C)C)C(C)(C)CC(O)C1=O (stereo not drawn)

**Result**
1. 0.963
2. 0.935
3. 0.981
4. 0.943
5. 0.963
6. 0.968
7. 0.864
8. 1.04

**Query** Looking for the measured normalized growth of CC(=O)N[C@@H](CC(C)C)C(=O)O , can you help?
**Result** 0.961
